- system_name: human CXCR3 (N-delta 4) (Homo sapiens, UniProt P49682)
- Construct: CD8 leader (N); Flag; expressed in transfected cells; membranes prepared
- Sequence (P49682 5-368 limits assumed): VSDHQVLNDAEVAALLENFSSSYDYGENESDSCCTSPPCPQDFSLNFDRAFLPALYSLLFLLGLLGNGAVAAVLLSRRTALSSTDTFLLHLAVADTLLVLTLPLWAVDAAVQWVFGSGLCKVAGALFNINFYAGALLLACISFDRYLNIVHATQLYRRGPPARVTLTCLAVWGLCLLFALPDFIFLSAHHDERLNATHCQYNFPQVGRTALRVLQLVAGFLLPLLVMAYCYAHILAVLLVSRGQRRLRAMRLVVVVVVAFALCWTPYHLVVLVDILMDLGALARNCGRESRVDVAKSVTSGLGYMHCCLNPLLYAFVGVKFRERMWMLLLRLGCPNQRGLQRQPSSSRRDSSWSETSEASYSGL
- assay_notes: Human CXCR3 (N-delta 4) Scintillation Proximity Assay (SPA), [125I] IP-10 binding to Ba/F3-hCXCR3 membranes
- assay_conditions: read-out: IC50
pIC50: −log10 of the molar value.
recorded_endpoint: pIC50

| compound | system_name | readout_value |
| --- | --- | --- |
| CC[C@H]1CN(c2nc(N)c(C(=O)NCCO)nc2Cl)CCN1C1CCN(Cc2ccc(Cl)cc2CO)CC1 [compound 107] | human CXCR3 (N-delta 4) (Homo sapiens, UniProt P49682) | 9.70 |
